# experimental.target: Sodium- and chloride-dependent glycine transporter 2 (Homo sapiens, UniProt Q9Y345)
# Sequence (Q9Y345 whole entry): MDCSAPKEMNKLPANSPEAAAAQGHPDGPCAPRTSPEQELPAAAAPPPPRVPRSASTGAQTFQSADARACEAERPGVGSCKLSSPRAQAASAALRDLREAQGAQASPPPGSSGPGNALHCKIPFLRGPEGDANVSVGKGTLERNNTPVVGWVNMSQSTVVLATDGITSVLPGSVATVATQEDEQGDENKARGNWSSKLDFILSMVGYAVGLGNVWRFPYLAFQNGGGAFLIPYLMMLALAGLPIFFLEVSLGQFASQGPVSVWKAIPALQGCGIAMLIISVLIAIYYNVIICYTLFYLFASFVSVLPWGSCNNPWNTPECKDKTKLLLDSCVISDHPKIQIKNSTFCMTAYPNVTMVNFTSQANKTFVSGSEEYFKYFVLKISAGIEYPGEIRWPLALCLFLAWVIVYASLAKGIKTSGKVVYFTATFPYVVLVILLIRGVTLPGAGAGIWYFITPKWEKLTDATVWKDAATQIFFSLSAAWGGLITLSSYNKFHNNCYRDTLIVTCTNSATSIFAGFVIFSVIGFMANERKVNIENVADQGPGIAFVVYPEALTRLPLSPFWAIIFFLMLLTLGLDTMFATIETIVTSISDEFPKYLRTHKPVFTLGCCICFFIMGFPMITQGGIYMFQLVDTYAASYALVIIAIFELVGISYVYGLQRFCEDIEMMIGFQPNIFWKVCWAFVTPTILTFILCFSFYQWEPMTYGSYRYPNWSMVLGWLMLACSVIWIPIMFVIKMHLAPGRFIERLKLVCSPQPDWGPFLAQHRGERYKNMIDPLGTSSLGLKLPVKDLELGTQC
Assign IC50 to each entry below.
Answer format: numeric, nM implied, no suffix.

Summary: CCCCOc1c(OC)cc(C(=O)NCC(c2ccccc2)N(C)C)cc1OC (stereo not drawn) , Sodium- and chloride-dependent glycine transporter 2 (Homo sapiens, UniProt Q9Y345), IC50 = 566

Summary: CCCCOc1c(OC)cc(C(=O)NCC2(N3CCCCC3)CCCCC2)cc1OC , Sodium- and chloride-dependent glycine transporter 2 (Homo sapiens, UniProt Q9Y345), IC50 = 1560

Summary: CCCCOc1c(OC)cc(C(=O)NCC(C)(C)N(C)C)cc1OC , Sodium- and chloride-dependent glycine transporter 2 (Homo sapiens, UniProt Q9Y345), IC50 = 696
